Tested Target: protein kinase C alpha (Homo sapiens, UniProt P17252)
Method Description: PKC Enzyme assay, alpha isozyme
Format: biochemical
Run Conditions: PKC alpha; 30 μM ATP, 30° C., 10 minutes; read-out: IC50 α
Measure Name: IC50 (µM)

[[record]]
compound = "Cn1cc(C2=C(c3cn(C4CCN(Cc5ccccc5)CC4)c4ccccc34)C(=O)NC2=O)c2ccccc21"
tested_target = "protein kinase C alpha (Homo sapiens, UniProt P17252)"
measure_name = "IC50"
recorded_result = 6


[1] Cn1cc(C2=C(c3cn(CCO[C@H]4O[C@H](CN)[C@H](O)[C@H](O)[C@H]4O)c4ccccc34)C(=O)NC2=O)c2ccccc21
[2] Cn1cc(C2=C(c3cn(C4CCN(c5ccccn5)CC4)c4ccccc34)C(=O)NC2=O)c2ccccc21
[3] CN1CCC(n2cc(C3=C(c4cn(C)c5ccccc45)C(=O)NC3=O)c3ccccc32)CC1
[4] CN1CCC(n2cc(C3=C(c4c[nH]c5ccccc45)C(=O)NC3=O)c3ccccc32)CC1
Hey, quick one: sort these by IC50, low to high? Ranked list of labels, please, in the requested order.
4, 3, 2, 1

* * *

Tested Target: UniProt:P05771
Method Description: PKC Enzyme assay, beta II isozyme
Format: biochemical
Measure Name: pIC50
Recall that pIC50 is obtained by taking minus log10 of the concentration measured in molar.

[[record]]
compound = "CN(C)CCCn1cc(C2=C(c3c[nH]c4ccccc34)C(=O)NC2=O)c2ccccc21 [Example 10]"
tested_target = "UniProt:P05771"
recorded_result = 7.30


Answer with reported pIC50 of Cn1cc(C2=C(c3cn(C4CCN(C(=O)OC(C)(C)C)CC4)c4ccccc34)C(=O)NC2=O)c2ccccc21 [Example 6]
7.09

Answer with reported pIC50 of Cn1cc(C2=C(c3cn(C4CCN(CC(F)(F)C(F)(F)C(F)(F)F)CC4)c4ccccc34)C(=O)NC2=O)c2ccccc21 [Example 46]
6.34

Answer with reported pIC50 of CN(C)CCCn1cc(C2=C(c3cn(C)c4ccccc34)C(=O)NC2=O)c2ccccc21 [Example 13]
7.22

* * *

Tested Target: protein kinase C alpha (Homo sapiens)
Method Description: PKC Enzyme assay, alpha isozyme
Format: biochemical
Run Conditions: PKC alpha; 30 μM ATP, 30° C., 10 minutes; read-out: IC50 α
Measure Name: IC50 (µM)

See these solved cases before continuing.
[[record]]
compound = "Cn1cc(C2=C(c3cn(C4CCN(CC5CC5)CC4)c4ccccc34)C(=O)NC2=O)c2ccccc21 [Example 39]"
measure_name = "IC50"
recorded_result = 0.3

[[record]]
compound = "CN1CCC(Cn2cc(C3=C(c4cn(C)c5ccccc45)C(=O)NC3=O)c3ccccc32)CC1 [Example 68]"
measure_name = "IC50"
recorded_result = 1.4


[I] Cn1cc(C2=C(c3c[nH]c4ccccc34)C(=O)NC2=O)c2ccccc21 [Example 12]
[II] Cc1c(C2=C(c3cn(CN(C)C)c4ccccc34)C(=O)NC2=O)c2ccccc2n1CCCN(C)C [Example 15]
Kindly identify which of I and II has the larger recorded IC50 value. Which one? Tell me its label.
II

* * *

Tested Target: protein kinase C gamma (Homo sapiens, UniProt P05129)
Method Description: PKC Enzyme assay, gamma isozyme
Assay type: biochemical
Run Conditions: PKC gamma; 30 μM ATP, 30° C., 10 minutes; read-out: IC50 γ
pIC50: −log10 of the molar value.
Measure Name: pIC50

See these solved cases before continuing.
[[record]]
compound = "Cn1cc(C2=C(c3c[nH]c4ccccc34)C(=O)NC2=O)c2ccccc21 [Example 12]"
tested_target = "protein kinase C gamma (Homo sapiens, UniProt P05129)"
recorded_result = 5.90

[[record]]
compound = "Cn1cc(C2=C(c3cn(CCCCOC4CC(O)C(CN)O4)c4ccccc34)C(=O)NC2=O)c2ccccc21 (stereo not shown) [Example 54]"
tested_target = "protein kinase C gamma (Homo sapiens, UniProt P05129)"
recorded_result = 4.82


[1] Cn1cc(C2=C(c3cn(CCOC4O[C@H](CO)[C@@H](O)[C@@H](O)[C@H]4N=[N+]=[N-])c4ccccc34)C(=O)NC2=O)c2ccccc21 (stereo partly shown) [Example 60]
[2] Cn1cc(C2=C(c3cn(C4CCN(C(=NC(=O)OC(C)(C)C)NC(=O)OC(C)(C)C)CC4)c4ccccc34)C(=O)NC2=O)c2ccccc21 [Example 5]
Please indicate which item has the smaller measured pIC50: 1 versus 2 Which one? Tell me its label.
1

[I] CN1CCC(n2cc(C3=C(c4c[nH]c5ccccc45)C(=O)NC3=O)c3ccccc32)CC1 [Example 51]
[II] O=C1NC(=O)C(c2cn(Cc3ccccc3)c3ccccc23)=C1c1c[nH]c2ccccc12 [Example 14]
Please indicate which item has the smaller measured pIC50: I versus II Which one? Tell me its label.
II

* * *

Tested Target: protein kinase C zeta (Homo sapiens)
Sequence (Q05513 whole entry): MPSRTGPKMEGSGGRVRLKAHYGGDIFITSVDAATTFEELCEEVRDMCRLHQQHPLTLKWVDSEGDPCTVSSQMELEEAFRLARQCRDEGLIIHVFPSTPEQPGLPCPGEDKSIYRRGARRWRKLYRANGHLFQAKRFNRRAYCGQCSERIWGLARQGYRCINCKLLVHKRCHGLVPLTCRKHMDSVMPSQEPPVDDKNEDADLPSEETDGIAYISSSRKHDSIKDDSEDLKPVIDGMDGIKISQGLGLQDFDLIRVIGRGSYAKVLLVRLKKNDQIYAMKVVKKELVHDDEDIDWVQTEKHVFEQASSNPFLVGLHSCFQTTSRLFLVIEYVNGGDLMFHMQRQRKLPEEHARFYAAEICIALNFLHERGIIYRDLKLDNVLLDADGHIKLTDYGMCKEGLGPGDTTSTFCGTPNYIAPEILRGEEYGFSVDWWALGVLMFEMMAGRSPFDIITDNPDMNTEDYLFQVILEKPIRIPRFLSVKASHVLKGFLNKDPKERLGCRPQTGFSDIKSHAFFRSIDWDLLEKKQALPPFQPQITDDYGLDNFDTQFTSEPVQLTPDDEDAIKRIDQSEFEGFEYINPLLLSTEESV
Method Description: PKC Enzyme assay, zeta isozyme
Assay type: biochemical
Run Conditions: PKC zeta; 30 μM ATP, 30° C., 10 minutes; read-out: IC50 ζ
Measure Name: IC50 (µM)

[[record]]
compound = "Cn1cc(C2=C(c3cn(C4CCN(CC5CC5)CC4)c4ccccc34)C(=O)NC2=O)c2ccccc21"
measurement_unit = "µM"
recorded_result = 9

[[record]]
compound = "Cn1cc(C2=C(c3cn(CCOC4C[C@H](N)[C@@H](CO)O4)c4ccccc34)C(=O)NC2=O)c2ccccc21 (stereo partly shown)"
measurement_unit = "µM"
recorded_result = 50


[a] CC(=O)OCC1(COC(C)=O)CCn2c(c(C3=C(c4cn(C)c5ccccc45)C(=O)NC3=O)c3ccccc32)C1
[b] Cn1cc(C2=C(c3c[nH]c4ccccc34)C(=O)NC2=O)c2ccccc21
Please indicate which item has the smaller measured IC50: a versus b Which one? Tell me its label.
b

* * *

Tested Target: protein kinase C beta-1 (Homo sapiens)
Sequence (P05771 whole entry): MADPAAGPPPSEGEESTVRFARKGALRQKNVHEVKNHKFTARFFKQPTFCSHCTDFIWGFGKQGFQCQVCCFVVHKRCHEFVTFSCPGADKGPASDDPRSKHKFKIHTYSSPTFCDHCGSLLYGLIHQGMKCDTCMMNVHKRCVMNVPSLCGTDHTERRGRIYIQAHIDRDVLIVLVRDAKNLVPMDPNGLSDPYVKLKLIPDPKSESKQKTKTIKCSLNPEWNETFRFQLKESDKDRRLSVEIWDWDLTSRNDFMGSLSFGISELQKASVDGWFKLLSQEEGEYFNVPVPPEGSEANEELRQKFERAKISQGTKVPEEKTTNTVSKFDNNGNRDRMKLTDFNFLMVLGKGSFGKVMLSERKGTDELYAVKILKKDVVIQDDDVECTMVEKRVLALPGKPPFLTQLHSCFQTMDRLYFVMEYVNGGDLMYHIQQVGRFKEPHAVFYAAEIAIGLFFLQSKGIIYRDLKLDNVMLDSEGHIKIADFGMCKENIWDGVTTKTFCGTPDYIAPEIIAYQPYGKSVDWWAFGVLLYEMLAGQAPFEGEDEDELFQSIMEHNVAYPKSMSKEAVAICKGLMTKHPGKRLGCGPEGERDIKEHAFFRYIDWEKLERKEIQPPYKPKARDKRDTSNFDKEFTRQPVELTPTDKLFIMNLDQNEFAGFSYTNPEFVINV
Method Description: PKC Enzyme assay, beta I isozyme
Type: biochemical
Run Conditions: PKC beta-1; 30 μM ATP, 30° C., 10 minutes; read-out: IC50 β1
Procedure: PKC enzymes=alpha, beta I, beta II, gamma, delta, epsilon, eta and zeta. Assay components in a total volume of 250 μL are the following: […]
pIC50: −log10 of the molar value.
Measure Name: pIC50

[[record]]
molecule = "CCOC(=O)CN1CCC(n2cc(C3=C(c4cn(C)c5ccccc45)C(=O)NC3=O)c3ccccc32)CC1 [Example 38]"
recorded_result = 7.30

[[record]]
molecule = "CN(C)CCCN1CCC(n2cc(C3=C(c4cn(C)c5ccccc45)C(=O)NC3=O)c3ccccc32)CC1 [Example 41]"
recorded_result = 6.70


[A] Cn1cc(C2=C(c3cn(CCCCOC4CC(O)C(CN)O4)c4ccccc34)C(=O)NC2=O)c2ccccc21 (stereo not shown) [Example 53]
[B] CC(=O)NCC1OC(OCCCCn2cc(C3=C(c4cn(C)c5ccccc45)C(=O)NC3=O)c3ccccc32)CC1OC(C)=O (stereo not shown) [Example 55]
Please indicate which item has the smaller measured pIC50: A versus B Which one? Tell me its label.
A
(A: 6.39, B: 6.59)

[A] Cn1cc(C2=C(c3cn(CCOC4O[C@H](CO)[C@@H](O)[C@@H](N)[C@H]4O)c4ccccc34)C(=O)NC2=O)c2ccccc21 (stereo partly shown) [Example 67]
[B] Cn1cc(C2=C(c3cn(CCOC4C[C@H](N=[N+]=[N-])[C@@H](CO)O4)c4ccccc34)C(=O)NC2=O)c2ccccc21 (stereo partly shown) [Example 61]
Kindly identify which of A and B has the larger recorded pIC50 value. Which one? Tell me its label.
B
(B: 6.80, A: 6.52)

* * *

Tested Target: protein kinase C beta-2 (Homo sapiens, UniProt P05771)
Sequence (P05771 1-673 isoform P05771-2): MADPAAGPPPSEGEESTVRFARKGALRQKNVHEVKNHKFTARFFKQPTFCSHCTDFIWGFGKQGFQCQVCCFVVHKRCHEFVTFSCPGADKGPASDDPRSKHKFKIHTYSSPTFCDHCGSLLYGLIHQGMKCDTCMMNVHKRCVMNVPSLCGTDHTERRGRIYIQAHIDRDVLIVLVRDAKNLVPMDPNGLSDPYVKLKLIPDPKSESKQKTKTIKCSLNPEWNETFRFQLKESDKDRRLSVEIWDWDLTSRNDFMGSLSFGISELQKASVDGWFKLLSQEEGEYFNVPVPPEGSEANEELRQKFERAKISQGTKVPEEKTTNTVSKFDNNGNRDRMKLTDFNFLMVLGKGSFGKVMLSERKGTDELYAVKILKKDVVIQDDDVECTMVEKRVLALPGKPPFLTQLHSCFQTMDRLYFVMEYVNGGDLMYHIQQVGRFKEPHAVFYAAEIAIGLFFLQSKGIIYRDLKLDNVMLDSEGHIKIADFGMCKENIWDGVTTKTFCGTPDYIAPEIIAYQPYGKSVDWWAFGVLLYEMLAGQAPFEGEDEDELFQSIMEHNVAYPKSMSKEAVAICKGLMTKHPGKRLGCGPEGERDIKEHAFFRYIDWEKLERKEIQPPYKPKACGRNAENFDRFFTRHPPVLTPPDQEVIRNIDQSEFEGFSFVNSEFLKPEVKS
Method Description: PKC Enzyme assay, beta II isozyme
Format: biochemical
Run Conditions: PKC beta-2; 30 μM ATP, 30° C., 10 minutes; read-out: IC50 β2
Measure Name: IC50 (nM)

[[record]]
molecule = "Cn1cc(C2=C(c3c[nH]c4ccccc34)C(=O)NC2=O)c2ccccc21"
measurement_unit = "nM"
recorded_result = 86

[[record]]
molecule = "CC(=O)N1CCC(n2cc(C3=C(c4cn(C)c5ccccc45)C(=O)NC3=O)c3ccccc32)CC1"
measurement_unit = "nM"
recorded_result = 20

[[record]]
molecule = "CN1CCC(n2cc(C3=C(c4c[nH]c5ccccc45)C(=O)NC3=O)c3ccccc32)CC1"
measurement_unit = "nM"
recorded_result = 10

[[record]]
molecule = "Cn1cc(C2=C(c3cn(CCOC4C[C@H](N)[C@@H](CO)O4)c4ccccc34)C(=O)NC2=O)c2ccccc21 (some centres unmarked)"
measurement_unit = "nM"
recorded_result = 49

[[record]]
molecule = "Cn1cc(C2=C(c3c4n(c5ccccc35)CCC(CO)(CO)C4)C(=O)NC2=O)c2ccccc21"
measurement_unit = "nM"
recorded_result = 60

[[record]]
molecule = "O=C1NC(=O)C(c2cn(C3CCNCC3)c3ccccc23)=C1c1c[nH]c2ccccc12"
measurement_unit = "nM"
recorded_result = 20

[[record]]
molecule = "Cn1cc(C2=C(c3c4n(c5ccccc35)CCC(CO)C4)C(=O)NC2=O)c2ccccc21 (centres unmarked)"
measurement_unit = "nM"
recorded_result = 6.1

[[record]]
molecule = "CCN1CCC(n2cc(C3=C(c4cn(C)c5ccccc45)C(=O)NC3=O)c3ccccc32)CC1"
measurement_unit = "nM"
recorded_result = 5

[[record]]
molecule = "Cn1cc(C2=C(c3cn(C4CCN(Cc5ccccc5)CC4)c4ccccc34)C(=O)NC2=O)c2ccccc21 [Example 4]"
measurement_unit = "nM"
recorded_result = 30

[[record]]
molecule = "Cn1cc(C2=C(c3cn(C4CCN(C(=NC(=O)OC(C)(C)C)NC(=O)OC(C)(C)C)CC4)c4ccccc34)C(=O)NC2=O)c2ccccc21"
measurement_unit = "nM"
recorded_result = 29


[a] Cc1c(C2=C(c3c(C)n(CN(C)C)c4ccccc34)C(=O)NC2=O)c2ccccc2n1CCCN(C)C
[b] Cc1c(C2=C(c3cn(CN(C)C)c4ccccc34)C(=O)NC2=O)c2ccccc2n1CCCN(C)C
Kindly identify which of a and b has the larger recorded IC50 value. Which one? Tell me its label.
a
(a: 600 nM, b: 100 nM)

[A] Cn1cc(C2=C(c3cn(CCOC4O[C@H](CO)[C@@H](O)[C@@H](N=[N+]=[N-])[C@H]4O)c4ccccc34)C(=O)NC2=O)c2ccccc21 (some centres unmarked)
[B] Cn1cc(C2=C(c3cn(CCO[C@@H]4O[C@H](CN=[N+]=[N-])[C@H](O)[C@H](O)[C@H]4O)c4ccccc34)C(=O)NC2=O)c2ccccc21
[C] CC(C)N1CCC(n2cc(C3=C(c4cn(C)c5ccccc45)C(=O)NC3=O)c3ccccc32)CC1
[D] Cn1cc(C2=C(c3cn(C4CCN(c5ccccn5)CC4)c4ccccc34)C(=O)NC2=O)c2ccccc21
[E] Cn1cc(C2=C(c3cn(C4CCOC4)c4ccccc34)C(=O)NC2=O)c2ccccc21 (centres unmarked)
Hey, quick one: sort these by IC50, low to high? Ranked list of labels, please, in the requested order.
E, C, D, A, B

[I] Cn1cc(C2=C(c3cn(CCO[C@@H]4C[C@H](O)[C@@H](CN=[N+]=[N-])O4)c4ccccc34)C(=O)NC2=O)c2ccccc21
[II] Cn1cc(C2=C(c3cn(C4CN(C(c5ccccc5)c5ccccc5)C4)c4ccccc34)C(=O)NC2=O)c2ccccc21
Kindly identify which of I and II has the larger recorded IC50 value. Which one? Tell me its label.
II
(II: 2700 nM, I: 270 nM)

[1] Cn1cc(C2=C(c3cn(CCCCOC4CC(O)C(CN)O4)c4ccccc34)C(=O)NC2=O)c2ccccc21 (centres unmarked) [Example 54]
[2] Cn1cc(C2=C(c3cn(CCCCOC4CC(O)C(CN)O4)c4ccccc34)C(=O)NC2=O)c2ccccc21 (centres unmarked) [Example 53]
[3] CN(C)CCCN1CCC(n2cc(C3=C(c4cn(C)c5ccccc45)C(=O)NC3=O)c3ccccc32)CC1
[4] CC(=O)NC[C@H]1O[C@H](OCCn2cc(C3=C(c4cn(C)c5ccccc45)C(=O)NC3=O)c3ccccc32)C[C@@H]1O
Hey, quick one: sort these by IC50, low to high? Ranked list of labels, please, in the requested order.
4, 3, 2, 1

[1] Cn1cc(C2=C(c3cn(CCOC4C[C@@H](N=[N+]=[N-])[C@@H](CO)O4)c4ccccc34)C(=O)NC2=O)c2ccccc21 (some centres unmarked)
[2] CCOC(=O)N1CCC(Cn2cc(C3=C(c4cn(C)c5ccccc45)C(=O)NC3=O)c3ccccc32)CC1
Please indicate which item has the smaller measured IC50: 1 versus 2 Which one? Tell me its label.
1
(1: 100 nM, 2: 210 nM)

[A] O=C1NC(=O)C(c2cn(CCCO)c3ccccc23)=C1c1c[nH]c2ccccc12
[B] Cn1cc(C2=C(c3cn(C4CCN(C(=N)N)CC4)c4ccccc34)C(=O)NC2=O)c2ccccc21
Kindly identify which of A and B has the larger recorded IC50 value. Which one? Tell me its label.
A

Recorded values, source patent US5668152A.
